The reported numbers originate from paper PMC4310094.

Biological target: Farnesoid X Receptor (FXR) (Homo sapiens, UniProt Q96RI1)
Construct: Human FXRα-LBD (amino acids 200–473); expressed in transfected cells; host or cells: yeast strain AH109
Sequence (Q96RI1 214-486): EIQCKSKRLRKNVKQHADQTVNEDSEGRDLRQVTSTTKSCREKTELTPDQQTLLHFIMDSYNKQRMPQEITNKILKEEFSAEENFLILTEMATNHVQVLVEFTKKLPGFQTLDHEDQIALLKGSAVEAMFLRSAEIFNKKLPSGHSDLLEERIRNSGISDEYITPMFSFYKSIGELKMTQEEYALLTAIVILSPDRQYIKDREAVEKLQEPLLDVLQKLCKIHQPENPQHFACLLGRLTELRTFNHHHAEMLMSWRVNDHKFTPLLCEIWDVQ
Assay: Yeast two-hybrid assay, hFXR agonist testing (FXR-LBD/SRC1 interaction, α-galactosidase)
Assay type: cell-based
Conditions: DMSO = 1
The compounds listed here are annotated with their FXR activation (10 μM).
Respond using a number only.

Example cases with answers are listed next.
Quick check: FXR activation (10 μM) on Farnesoid X Receptor (FXR) (Homo sapiens, UniProt Q96RI1), item "CS(=O)(=O)c1ccc(C2=C(c3ccccc3)C(=O)OC2)cc1" ?
1.18

Quick check: FXR activation (10 μM) on Farnesoid X Receptor (FXR) (Homo sapiens, UniProt Q96RI1), item "O=C(O)c1cc(-c2ccc(F)cc2F)ccc1O" ?
1.31

Quick check: FXR activation (10 μM) on Farnesoid X Receptor (FXR) (Homo sapiens, UniProt Q96RI1), item "CN1C(C(=O)Nc2ccccn2)=C(O)c2ccccc2S1(=O)=O" ?
1.13

---
Quick check: FXR activation (10 μM) on Farnesoid X Receptor (FXR) (Homo sapiens, UniProt Q96RI1), item "CCCCC1C(=O)N(c2ccccc2)N(c2ccccc2)C1=O" ?
0.99

----------
Biological target: Farnesoid X Receptor (FXR) (Homo sapiens, UniProt Q96RI1)
Construct: Human FXRα-LBD (amino acids 200–473); expressed in transfected cells; host or cells: yeast strain AH109
Assay: Yeast two-hybrid assay, FXR antagonist testing (compounds plus 10 μM CDCA)
Assay type: cell-based
Measured parameter: inhibition at 10 µM

Example cases with answers are listed next.
Quick check: inhibition at 10 µM on Farnesoid X Receptor (FXR) (Homo sapiens, UniProt Q96RI1), item "CCCCC1C(=O)N(c2ccccc2)N(c2ccccc2)C1=O" ?
91.9%

Quick check: inhibition at 10 µM on Farnesoid X Receptor (FXR) (Homo sapiens, UniProt Q96RI1), item "CN1C(C(=O)Nc2ccccn2)=C(O)c2ccccc2S1(=O)=O" ?
30.7%

Quick check: inhibition at 10 µM on Farnesoid X Receptor (FXR) (Homo sapiens, UniProt Q96RI1), item "CS(=O)(=O)c1ccc(C2=C(c3ccccc3)C(=O)OC2)cc1" ?
39.9%

---
Quick check: inhibition at 10 µM on Farnesoid X Receptor (FXR) (Homo sapiens, UniProt Q96RI1), item "O=C(O)c1cc(-c2ccc(F)cc2F)ccc1O" ?
93.3%

----------
The compounds listed here are annotated with their pIC50.
Target: Farnesoid X Receptor (FXR) (Homo sapiens, UniProt Q96RI1)
Construct: Human FXRα-LBD (amino acids 200–473)
Assay: Yeast two-hybrid assay, FXR antagonist testing (compounds plus 10 μM CDCA)
Details: yeast two hybrid, hFXR-LBD/SRC1; determined if inhibition at 10 μM > 50%
Please report pIC50 as the negative decimal logarithm of the molar concentration, giving only the number.

Tell me the measured pIC50 of "O=C(O)c1cc(-c2ccc(F)cc2F)ccc1O" , please.
5.07

---
Tell me the measured pIC50 of "CCCCC1C(=O)N(c2ccccc2)N(c2ccccc2)C1=O" , please.
6.15
